- TEST: NFkB reporter suppression in cystic fibrosis bronchial cells – cell-based, uHTS hits, panel, cytotoxicity readout, dose response (AID 624344)
- COND: CF bronchial epithelial cells, PAF-induced NFkB reporter inhibition; with PAF, mean of runs
Active and inactive are the calls of the source. How the calls were made is not given here.
Would you mind answering with one of these outcomes? Yes = active, No = inactive

**Query** Returns: the outcome recorded for CC(C)(C)S(=O)N1Cc2cc(C(=O)NCC(F)(F)F)nc(-c3cccc(-c4cccc(F)c4)c3)c2[C@@H]1CCO (some centres not stated) in this assay.
**Result** Yes

**Query** Returns: the outcome recorded for COc1ccc(-c2cc(C(F)(F)F)nc(S(=O)(=O)CCCC(=O)Nc3cccnc3Cl)n2)cc1OC in this assay.
**Result** Yes

**Query** Returns: the outcome recorded for CC(C)CN=C(NS(=O)(=O)c1ccccc1)C(Cl)(Cl)Cl in this assay.
**Result** Yes

Others:
**Query** Returns: the outcome recorded for COc1cc(C2c3cc4c(c(O)c3CC3COC(=O)C32)OCO4)cc(OC)c1OC (configuration not stated) in this assay.
**Result** No

**Query** Returns: the outcome recorded for COc1ccc(OC)c(N(CCN2C(=O)c3ccccc3C2=O)C(=O)CCl)c1 in this assay.
**Result** Yes

**Query** Returns: the outcome recorded for O=C(CC12CC3CC(CC(C3)C1)C2)Nc1nncs1 in this assay.
**Result** No

**Query** Returns: the outcome recorded for Cc1c(-c2ccccc2)oc2c(C(=O)N3CCN(c4ccc([N+](=O)[O-])cc4)CC3)cccc2c1=O in this assay.
**Result** Yes

**Query** Returns: the outcome recorded for CCOC(=O)c1c(C)cc2c(CO)n[nH]c(=O)c2c1C in this assay.
**Result** Yes

**Query** Returns: the outcome recorded for Brc1ccc2ncnc(NCc3ccccc3)c2c1 in this assay.
**Result** Yes

**Query** Returns: the outcome recorded for COCCCN=C1NN=C(c2cc(C)n(Cc3ccccc3Cl)c2C)CS1 in this assay.
**Result** No

**Query** Returns: the outcome recorded for CC1(O)CC(c2ccc(Cl)cc2)=NN1C(=O)c1ccc(Cl)cc1 (configuration not stated) in this assay.
**Result** Yes

**Query** Returns: the outcome recorded for Cc1ccc(S(=O)(=O)Nc2nc3ccccc3nc2Nc2cccc(S(=O)(=O)N3CCCC3)c2)cc1 in this assay.
**Result** Yes

**Query** Returns: the outcome recorded for Cc1ccc2occ(/C=N/NC(=O)c3ccccc3C)c(=O)c2c1 in this assay.
**Result** Yes

**Query** Returns: the outcome recorded for CCOc1ccc(-n2c(C)c(C(C)=O)c3cc(O)ccc32)cc1 in this assay.
**Result** Yes

**Query** Returns: the outcome recorded for COc1ccc(-c2[nH]ncc2-c2ccc3c(c2)OCCO3)c(O)c1 in this assay.
**Result** Yes

**Query** Returns: the outcome recorded for Cc1cc(C)c(C#N)c(SCC(=O)c2ccc(Cl)cc2Cl)n1 in this assay.
**Result** Yes

**Query** Returns: the outcome recorded for Cc1ccc(-c2onc3ccc(C(=O)/C=C/N(C)C)cc23)cc1 in this assay.
**Result** Yes

**Query** Returns: the outcome recorded for CC(=O)c1cccc(NC(=O)COC(=O)c2ccc(S(C)(=O)=O)c([N+](=O)[O-])c2)c1 in this assay.
**Result** Yes

**Query** Returns: the outcome recorded for Cc1ccc(NC(=O)/C=C/c2ccco2)nc1 in this assay.
**Result** Yes

**Query** Returns: the outcome recorded for COc1cc(-c2cc(C(=O)Nc3ccc(S(=O)(=O)NCc4ccco4)cc3)c3ccccc3n2)cc(OC)c1OC in this assay.
**Result** Yes

====

Catalogue of molecules with associated pIC50
- TEST: NFkB reporter suppression in cystic fibrosis bronchial cells – cell-based, uHTS hits, panel, cytotoxicity readout, dose response (AID 624344)
- COND: CF bronchial epithelial cells, PAF-induced NFkB reporter inhibition; with PAF, mean of runs
pIC50: −log10 of the molar value.

**Query** Consider the molecule shown here: FC(F)Sc1ccc(NC(=S)NC(c2ccccc2)c2ccccc2)cc1 What is its recorded pIC50?
**Result** 5.19

**Query** Consider the molecule shown here: O=C(Nc1ccc(Br)c2ccccc12)c1ccc2ccccc2c1O What is its recorded pIC50?
**Result** 5.71

**Query** Consider the molecule shown here: CCN1CCN(Cc2ccc(NC(=O)c3ccc(C)c(NC(=O)c4ccno4)c3)cc2C(F)(F)F)CC1 What is its recorded pIC50?
**Result** > 6.82

Others:
**Query** Consider the molecule shown here: COc1ccc(-c2cc(=O)oc3cc(OC(=O)C4CCCCC4)ccc23)cc1 What is its recorded pIC50?
**Result** 5.63

**Query** Consider the molecule shown here: C=C1C(C)C2C(Cc3ccccc3)NC(=O)C23OC(=O)/C=C/C(O)CCCC(C)C/C=C/C3C1O (stereo not given) What is its recorded pIC50?
**Result** 5.90

====

- TEST: NFkB reporter suppression in cystic fibrosis bronchial cells – cell-based, uHTS hits, panel, cytotoxicity readout, dose response (AID 624344); call rule not given here
- COND: CF bronchial epithelial cells, PAF-induced NFkB reporter inhibition; with PAF, mean of runs
Would you mind answering with one of these outcomes? active, inactive

Some entries whose results are on file:
**Query** Returns: the outcome recorded for COc1ccc(CNc2ncnc3ccccc23)cc1 in this assay.
**Result** active

**Query** Returns: the outcome recorded for O=C(c1nnsc1S(=O)c1ccc(Cl)cc1)N1CCOCC1 (configuration not stated) in this assay.
**Result** active

**Query** Returns: the outcome recorded for CCc1ccc(N(CC)c2ncnc3nc[nH]c23)cc1 in this assay.
**Result** active

**Query** Returns: the outcome recorded for COc1ccc(-c2cc(=O)oc3cc(O)ccc23)cc1 in this assay.
**Result** active

**Query** Returns: the outcome recorded for CN1CCN(S(=O)(=O)c2ccc(Sc3nnnn3-c3ccccc3)c([N+](=O)[O-])c2)CC1 in this assay.
**Result** active

**Query** Returns: the outcome recorded for O=C1N(c2ccccc2C(F)(F)F)O[C@@]1(c1ccccc1)C1CCCCC1 in this assay.
**Result** active

Others:
**Query** Returns: the outcome recorded for CCN(CC)CCNC(=O)c1ccc(NC(=O)C2CCN(c3ncnc4sc(C)c(C)c34)CC2)cc1 in this assay.
**Result** active

**Query** Returns: the outcome recorded for CCOc1ccccc1NC(=S)Nc1ccc2cn[nH]c2c1 in this assay.
**Result** active

**Query** Returns: the outcome recorded for Cc1nc2sc(C(N)=O)c(N)c2c(C)c1CC(=O)c1ccccc1 in this assay.
**Result** active

**Query** Returns: the outcome recorded for O=C(c1cncc(Br)c1)N1CCc2ccccc2C1 in this assay.
**Result** active

**Query** Returns: the outcome recorded for Cc1ccc2c(c1)C(=O)C(=O)N2Cc1ccc(Br)cc1 in this assay.
**Result** active

**Query** Returns: the outcome recorded for CC(C)C[C@@H](CN1CCCC1CN1C(=S)NC[C@@H]1Cc1ccc(O)cc1)N1C[C@H](Cc2ccc(O)cc2)N(CCc2ccccc2)C1=S (some centres not stated) in this assay.
**Result** active

**Query** Returns: the outcome recorded for C=C1C(=O)[C@]23C[C@H]1CC[C@H]2[C@]1(C)[C@@H](O)CC[C@@](C)(C(=O)O)[C@H]1C[C@@H]3O in this assay.
**Result** active

====

- TEST: NFkB reporter suppression in cystic fibrosis bronchial cells – cell-based, uHTS hits, panel, cytotoxicity readout, dose response (AID 624344)
- COND: CF bronchial epithelial cells, PAF-induced NFkB reporter inhibition; with PAF, mean of runs
Catalogue of compounds with associated pIC50
Remember, pIC50 is on a log scale: it is -log10 of the molar concentration.

**Query** Consider the compound shown here: CNc1ccc2ncc(-c3cccc(C(=O)N(C)C)c3)n2n1 What is its recorded pIC50?
**Result** 6.77

**Query** Consider the compound shown here: Cc1ccc(Cl)cc1-c1cc(C(=O)NCc2cc(C(F)(F)F)cc(C(F)(F)F)c2)[nH]n1 What is its recorded pIC50?
**Result** 5.05

**Query** Consider the compound shown here: O=C(c1[nH]c(C(F)(F)F)nc1-c1ccccc1)N1CCN(c2c(Cl)cncc2Cl)CC1 What is its recorded pIC50?
**Result** 4.98

**Query** Consider the compound shown here: Cc1c(C(=O)c2cccc3ccccc23)c2cccc3c2n1[C@H](CN1CCOCC1)CO3 What is its recorded pIC50?
**Result** 5.10

**Query** Consider the compound shown here: NC1(C(=O)O)CSSC1 What is its recorded pIC50?
**Result** 5.11

Others:
**Query** Consider the compound shown here: NS(=O)(=O)c1ccc(CCNC(=O)c2ccc(C#CC3(O)CCCCC3)cc2)cc1 What is its recorded pIC50?
**Result** 5.46

**Query** Consider the compound shown here: CS(=O)(=O)Nc1ccc(-c2cnc3cccnn23)cc1 What is its recorded pIC50?
**Result** 5.60

**Query** Consider the compound shown here: CC(C)C[C@H]1CNC(=S)N1C[C@H]1CCCN1C[C@H](Cc1ccccc1)N1C[C@H](Cc2ccc(O)cc2)N(CC2CCCCCC2)C1=S What is its recorded pIC50?
**Result** 4.82

**Query** Consider the compound shown here: CN(Cc1ccccc1)c1ncnc(N)c1[N+](=O)[O-] What is its recorded pIC50?
**Result** 5.46

**Query** Consider the compound shown here: O=[N+]([O-])c1cc([N+](=O)[O-])c2oc(-c3ccccc3)c(Br)c2c1O What is its recorded pIC50?
**Result** 5.64
